# system.name: sigma 1 binding site (Cavia porcellus)
# Sequence (Q60492 whole entry): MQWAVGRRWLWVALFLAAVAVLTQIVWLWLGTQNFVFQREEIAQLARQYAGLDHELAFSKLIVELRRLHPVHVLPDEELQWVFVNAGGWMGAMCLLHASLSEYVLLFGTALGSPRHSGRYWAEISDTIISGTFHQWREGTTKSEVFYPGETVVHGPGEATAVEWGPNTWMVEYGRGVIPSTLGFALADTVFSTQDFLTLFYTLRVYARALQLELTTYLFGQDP
# method.description: biochemical
Counter-ions that a name gives are not always drawn.
What pKi was measured for each of the following?
One number for each entry, as −log10 of the molar value.

In [3]: df
Out[3]:
                                   compound                             system_name  measured_number
0  O=S1(=O)c2ccccc2Nc2ccc(Cl)cc2N1CC1CCN(CC(O)C23CC4CC(CC(C4)C2)C3)CC1 (racemic) [Example 8, hydrochloride]  sigma 1 binding site (Cavia porcellus)             6.20
1  O=S1(=O)c2cc(Cl)ccc2Oc2ccccc2N1CC1CCN(CC(O)c2ccc3ccccc3c2)CC1 (racemic) [Example 17, hydrochloride]  sigma 1 binding site (Cavia porcellus)             6.29
2  O=S1(=O)c2ccccc2Oc2ccccc2N1CC1CCN(CC(O)c2ccc(Cl)cc2)CC1 (racemic) [Example 11, hydrochloride]  sigma 1 binding site (Cavia porcellus)             7.37
3  O=S1(=O)c2cc(Cl)ccc2Oc2ccccc2N1CC1CCN(CC(O)c2ccc(F)cc2)CC1 (racemic) [Example 16, hydrochloride]  sigma 1 binding site (Cavia porcellus)             7.07
4  CN1c2ccccc2N(CC2CCN(CC(O)C34CC5CC(CC(C5)C3)C4)CC2)S(=O)(=O)c2ccccc21 (racemic) [Example 6, hydrochloride]  sigma 1 binding site (Cavia porcellus)             5.68

Dear reader, for each entry below, please note its pKi.
1. O=S1(=O)c2ccccc2Nc2ccccc2N1CC1CCN(CC(O)c2ccc(F)cc2F)CC1 (racemic) [Example 3, hydrochloride]
2. COc1ccc2c(c1)N(CC1CCN(CC(O)C34CC5CC(CC(C5)C3)C4)CC1)S(=O)(=O)c1cc(Cl)ccc1O2 (racemic) [Example 20, hydrochloride]

Outgoing:
1: 6.55; 2: 5.46

Dear reader, for each entry below, please note its pKi.
1. CN(CCCCN1c2ccccc2Oc2ccc(Cl)cc2S1(=O)=O)CC(O)c1ccc(F)cc1 (racemic) [Example 24, hydrochloride]
2. O=S1(=O)c2cc(Cl)ccc2Oc2ccccc2N1CC1CCN(CC(O)C23CC4CC(CC(C4)C2)C3)CC1 (racemic) [Example 14, hydrochloride]
3. COc1ccc(C(O)CN2CCC(CN3c4ccccc4Oc4ccccc4S3(=O)=O)CC2)cc1 (racemic) [Example 12, hydrochloride]

Outgoing:
1: 6.85; 2: 6.42; 3: 7.11

Incoming: State pKi (sigma 1 binding site (Cavia porcellus)) of COc1ccc2c(c1)N(CC1CCN(CC(O)c3ccc(F)cc3)CC1)S(=O)(=O)c1cc(Cl)ccc1O2 (racemic) [Example 21, hydrochloride] .
Outgoing: 6.38
